TGI listing for selected molecules.
Test system: SK-OV-3 ovarian
Assay: NCI tumour cell line growth inhibition, 48 h

>  <molecule>
CC(N)C(C)Cc1ccccc1 (stereo not drawn)

>  <assay-metric>
TGI

>  <obs-value>
> 100 µM

$$$$
>  <molecule>
CC(C)C1(C)N=C(C(F)(F)F)c2cc(C(=O)C(F)(F)F)c3ccccc3c2N1 (stereo not drawn)

>  <assay-metric>
TGI

>  <obs-value>
30.2 µM

$$$$

We next turn to a different molecule, shown below.
IN: Value lookup for TGI; key = COCC1CCCN1c1ccc(/C=C(/C#N)C(N)=S)cc1 (stereo not drawn)
OUT: > 100 µM

---

Test system: MALME-3M melanoma
Assay: NCI tumour cell line growth inhibition, 48 h
TGI listing for selected compounds.
// return numeric value only (unit: µM, not printed)

>  <compound>
NC(=NCCCOc1ccc(Cl)cc1)Nc1ccc(Cl)cc1

>  <target-desc>
MALME-3M melanoma

>  <TGI / µM>
4.14

$$$$
>  <compound>
Cc1ccc(C2NC(=S)NC3=C2CCOc2c3ccc3ccccc23)cc1 (stereo unspecified)

>  <target-desc>
MALME-3M melanoma

>  <TGI / µM>
7.73

$$$$

We next turn to a different compound, shown below.
IN: Value lookup for TGI; key = COc1cc2c(c(C)c1O)[C@H]1COc3ccccc3[C@H]1O2
OUT: 89.1
